Test target: T1, AahII toxin of Androctonus australis hector (Androctonus australis hector, UniProt P01484 20-83)
T1 sequence: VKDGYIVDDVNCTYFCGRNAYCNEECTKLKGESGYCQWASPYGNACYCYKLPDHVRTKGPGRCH
Assay details: cell-based or functional assay
Reported property: Survivors/Injected mice; i.c.v.; AahII:Nb 1:4; 2 LD50/mouse; 48 ng Nb/mouse

The examples below pair each entry with its known result.
binder="NbAahII10 (VHH, also called NbAahIIlO; NbAahII lO) VHH: QVQLVESGGGSVQAGGSLKLSCAASGYFYSSNYCLGWFRQAPGKEREGVAQINIAPGRIYYADSVKGRFTISRDNAKNTVYLQMDSLKPEDTAIYYCASTAGNMYYGLRGPADFDYWGQGTQVTVSS" test_value="4 survivors of 4 mice"
binder="NbAahII12 (VHH, Purified from E. coli periplasm with His6; also called cluster I) VHH: QVQLVESGGGLVQPGGSLRLSCAASGFSFNIYAMSWVRQAPGKQFEWVSGIHPNGRSTYYTDSVKGRFTISRDNAKNTLYLQLDSLKTEDTAMYYCAKGVLTKYVGGARGQGTQVTVSS" test_value="3 survivors of 4 mice"
binder="NbAahII18 (VHH, also called NbAahlllδ; NbAahll l δ) VHH: QVQLQESGGGSVQAGGSLRLSCAASGDSYSNYYMAWFRQAPGKEREGVAHINRSGRITLYADSVKGRFTMSRDNAKNTVYLQMNSLRPEDTAIYYCAAGVRTHMPPLASYGFDYWGQGTQVTVSS" test_value="2 survivors of 4 mice"

Lab note: next binder to report on.
// query Recall and state the measured Survivors/Injected mice; i.c.v.; AahII:Nb 1:4; 2 LD50/mouse; 48 ng Nb/mouse for NbAahII19 (VHH, Purified from E. coli periplasm with His6; also called cluster I) VHH: QVQLQESGGGLVQPGGSLRLSCAASGFSFNIYAMSWVRQAPGKQFEWVSGIHPDGRSTYYTDSVKGRFTISRDNAKNTLYLQLDSLKTEDTAMYYCAKGVLTKYVGSARGQGTQVTVSS .
// result 4 survivors of 4 mice
